Biological target: T1, C-terminal biotinylated human Hepcidin-25 (human, not fully specified; biotinylated via a Lysine residue coupled to the C-terminus via a Mini-PEG linker)
T1 construct: Captured on plates via Neutravidin in the ELISAs; also called C-terminal biotinylated hHepcidin; C-terminal biotinylated hepcidin (Bachem AG)
T1 peptide: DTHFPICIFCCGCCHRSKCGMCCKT
Assay: HT-screening ELISA, reverse ELISA and competition ELISA; T7- and Strep-tagged clone in crude lysate

{"columns": ["binder", "binding result"],
 "data": [
  ["lipocalin mutein of SEQ ID NO: 12 (designed binder, Purified with C-terminal Strep-tag II; also called hNGAL mutein; Lcn2 mutein; not shown: C-terminal Strep-tag II encoded by phNGAL98) QDSTSDLIPAPPLSKVPLQQNFQDNQFHGKWYVVGLAGNEVLREDKDPMKMWATIYELKEDKSYNVTIVMFLAEECEYLFQTFVPGSQPGEFTLGDIKSSPGRTSGLVRVVSTNYNQHAMVFFKVVWQNREVFWITLYGRTKELTSELKKNFIRFSKSLGLPENHIVFPVPIDQCIDG", "binds"],
  ["lipocalin mutein of SEQ ID NO: 10 (designed binder, Purified with C-terminal Strep-tag II; also called hNGAL mutein; Lcn2 mutein; not shown: C-terminal Strep-tag II encoded by phNGAL98) QDSTSDLIPAPPLSKVPLQQNFQDNQFHGKWYVVGLAGNEILREDKDPMKMWATIYELKEDRSYNVTIVMFLAKKCEYLFQTFVPGSQPGEFTLGDIKSSPGRTSGLVRVVSTNYNQHAMVFFKVVWQNREVFWITLYGRTKELTPELKENFIRFSKSLGLPENHIVFPVPIDQCIDGF", "binds"],
  ["lipocalin mutein of SEQ ID NO: 11 (designed binder, Purified with C-terminal Strep-tag II; also called hNGAL mutein; Lcn2 mutein; not shown: C-terminal Strep-tag II encoded by phNGAL98) QDSTSDLIPAPPLSKVPLQQNFQDNQFHGKWYVVGLAGNEILREDKDPMKMWATIYELKEDKSYNVTIVMFLAKKCEYLFQTFVPGSQPGEFTLGDIKSSPGRTSGLVRVVSTNYNQHAMVFFKVVWQNREVFWITLYGRTKELTSGLKENFIRFSKSLGLPENHIVFPVPIDQCIDG", "binds"],
  ["lipocalin mutein of SEQ ID NO: 9 (designed binder, Purified with C-terminal Strep-tag II; also called hNGAL mutein; Lcn2 mutein; not shown: C-terminal Strep-tag II encoded by phNGAL98) QDSTSDLIPAPPLSKVPLQQNFQDNQFHGKWYVVGLAGNEVLREDKDPMKMWATIYELKEDKSYNVTIVMSLAKKCEYLFQTFVPGSQPGEFTLGDIKSSPGRTSGLVRVVSTNYNQHAMVFFKVVWQNREVFWITLYGRTKELTSGLKENFIRFSKSLGLPENHIVFPVPIDQCIDG", "binds"],
  ["lipocalin mutein of SEQ ID NO: 8 (designed binder, Purified with C-terminal Strep-tag II; also called hNGAL mutein; Lcn2 mutein; not shown: C-terminal Strep-tag II encoded by phNGAL98) QDSTSDLIPAPPLSKVPLQQNFQDNQFHGKWYVVGLAGNEVLREDKDPMKMWATIYELKEDKSYNVTIVMPLAEKCEYLFQTFVPGSQPGEFTLGGIKSGPGRTSGLVRVVSTNYNQHAMVFFKVVWQNREVFWVTLYGRTKELTSELKENFIRFSKSLGLPENHIVFPVPIDQCIDG", "binds"]
]}
